Biological target: Beta-lactamase (Pseudomonas aeruginosa (strain ATCC 15692 / PAO1 / 1C / PRS 101 / LMG12228))
Sequence (P24735 whole entry): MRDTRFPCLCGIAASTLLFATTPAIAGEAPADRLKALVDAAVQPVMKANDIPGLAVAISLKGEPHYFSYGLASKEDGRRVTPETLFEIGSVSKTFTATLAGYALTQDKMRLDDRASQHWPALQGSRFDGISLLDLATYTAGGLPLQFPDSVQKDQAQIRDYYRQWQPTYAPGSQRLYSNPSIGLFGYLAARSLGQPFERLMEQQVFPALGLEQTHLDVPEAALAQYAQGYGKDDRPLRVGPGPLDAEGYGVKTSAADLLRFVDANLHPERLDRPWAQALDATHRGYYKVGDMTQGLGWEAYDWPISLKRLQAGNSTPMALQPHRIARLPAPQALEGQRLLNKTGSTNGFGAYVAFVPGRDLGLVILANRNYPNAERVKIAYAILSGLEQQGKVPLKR
Experiment: Concentration required for its inhibitory activity against Pseudomonas aeruginosa class C beta-lactamase
Measured quantity: IC50 (mg/L)
Use mg/L as the unit, but write only the number.

Prompt: Which measured IC50 value corresponds to `CCCCCCCCCCCCCCCc1cccc(OC)c1C(=O)O` ?
Response: 11

Prompt: For the molecule C=CC/C=C\C/C=C\CCCCCCCc1cccc(O)c1C(=O)O [ANACARDIC ACID] , what IC50 is on record?
Response: 7.2

Prompt: Which measured IC50 value corresponds to CCC(C)CCCCCCCCCCCCc1cccc(O)c1C(=O)O (stereo not given) ?
Response: 36

Prompt: Can you look up the measured IC50 of `CC(C)CCCCCCCCCCCCCc1cccc(O)c1C(=O)O` for me?
Response: 16

Prompt: I'd like to know its IC50. The molecule in question is `CCCCCCCCCCCCCCCCCc1cccc(O)c1C(=O)O`
Response: 9.1

###

Target: Beta-lactamase (Enterobacter cloacae, UniProt P05364)
Sequence (P05364 whole entry): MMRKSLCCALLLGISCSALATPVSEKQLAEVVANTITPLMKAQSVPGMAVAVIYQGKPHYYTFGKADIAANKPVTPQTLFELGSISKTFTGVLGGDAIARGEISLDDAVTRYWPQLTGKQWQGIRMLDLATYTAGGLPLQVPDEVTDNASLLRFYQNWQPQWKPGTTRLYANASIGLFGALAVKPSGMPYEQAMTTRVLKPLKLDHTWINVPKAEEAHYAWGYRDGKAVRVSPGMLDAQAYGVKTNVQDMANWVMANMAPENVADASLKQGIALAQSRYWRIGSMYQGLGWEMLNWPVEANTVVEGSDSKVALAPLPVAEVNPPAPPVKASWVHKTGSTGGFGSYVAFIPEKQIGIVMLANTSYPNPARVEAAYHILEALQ
Experiment: Concentration required for its inhibitory activity against Enterobacter cloacae P99 class C beta-lactamase
Please respond with reported IC50 for every item in the list.
// units = µg/mL; emit number, no label

Prompt: // query IC50 value for entry `CCCCCCCCCCc1cccc(O)c1O`
Response: 21

Prompt: What does the data say about its IC50? Entry: `CCCCCCCCCCCCCCCc1cccc(OC)c1C(=O)O`
Response: 2.5

Prompt: What does the record list as IC50 for CCC(C)CCCCCCCCCCCCc1cccc(O)c1C(=O)O (centres undefined) ?
Response: 31

Prompt: So what's the measured IC50 for this one? `CCCCCCCCCCCCCCCCCc1cccc(O)c1C(=O)O`
Response: 1
